Some compounds, each annotated with its measured growth inhibition.
- MEASUREMENT_DESCRIPTION: NCI Yeast Anticancer Drug Screen. Data for the rad50EPP+ strain (AID 151);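 note: 0% = growth of vehicle-treated control cultures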
- APPLIED_CONDITIONS: S. cerevisiae rad50 mutant strain, at 11.0 µM, hits give high values
About 79,000 compounds went through this panel and 15% of them were active in at least one assay; those are over-represented in the sample as a whole.

>  <COMPOUND>
Brc1ccccc1-c1ncc(-c2ccccc2)o1

>  <growth inhibition (%)>
-1

$$$$
>  <COMPOUND>
CCN(CC)CCOc1cc(C)c2cc(Cc3ccccc3)ccc2n1

>  <growth inhibition (%)>
3

$$$$
>  <COMPOUND>
Cc1c2cccc(Sc3ccccc3)c2c2c3c(cccc13)[S+](c1ccccc1)C2 (stereo unspecified)

>  <growth inhibition (%)>
39

$$$$
>  <COMPOUND>
O=C(Nc1ccc(Cl)cc1)Nc1nnc2nc(C(C(=O)c3cccc([N+](=O)[O-])c3Cl)c3nc4nnc(NC(=O)Nc5ccc(Cl)cc5)n4[nH]c3=O)c(=O)[nH]n12

>  <growth inhibition (%)>
8

$$$$
>  <COMPOUND>
COc1oc(C(=O)NC2CCCCC2)c(-c2ccc(Cl)cc2)c1S(=O)(=O)c1ccccc1

>  <growth inhibition (%)>
-18

$$$$
>  <COMPOUND>
C[C@@](O)(/C=C/[C@H]1CC=CC(=O)O1)[C@@H](C[C@@H](O)\C=C/C=C\C=C\CO)OP(=O)(O)O

>  <growth inhibition (%)>
17

$$$$
>  <COMPOUND>
NC1=NNC2(C(N)=N1)c1ccccc1-c1ccccc12

>  <growth inhibition (%)>
2

$$$$
>  <COMPOUND>
COC(=O)C1=C(C(=O)OC)C(C(=O)OC)C(C(=O)OC)C(C(=O)OC)(C(=O)OC)C(C(=O)OC)=C1C(=O)OC (stereo unspecified)

>  <growth inhibition (%)>
-4

$$$$
>  <COMPOUND>
CCOc1ccc(NC(=O)C2=C(C)NC(C)=C(C(=O)Nc3ccc(OCC)cc3)C2c2cccc([N+](=O)[O-])c2)cc1

>  <growth inhibition (%)>
1

$$$$
>  <COMPOUND>
CCOC1=C/C(=N\Nc2ccc([N+](=O)[O-])cc2)CCC1

>  <growth inhibition (%)>
70

$$$$
>  <COMPOUND>
COC(=O)/C=C(/C(=O)OC)C(Cl)(Cl)Cl

>  <growth inhibition (%)>
24

$$$$
>  <COMPOUND>
CCOc1c(N=Nc2ccccc2OC)c(C)nn1C(=S)S

>  <growth inhibition (%)>
26

$$$$
>  <COMPOUND>
CCOc1ccccc1N=Cc1c2ccccc2cc2ccccc12

>  <growth inhibition (%)>
63

$$$$
>  <COMPOUND>
N#CC(=Nc1ccccc1F)Nc1ccccc1F

>  <growth inhibition (%)>
21

$$$$
>  <COMPOUND>
O=C(O)c1cc2ccc(Cl)cc2c(O)c1C1=CCCCC1

>  <growth inhibition (%)>
13

$$$$
>  <COMPOUND>
COc1ccc(/C=C2\NC(=S)N(/C=C3\C(=O)Oc4ccccc4C3=O)C2=O)cc1

>  <growth inhibition (%)>
-1

$$$$
>  <COMPOUND>
CSc1nc(C)c(CCOC(C)=O)c(N=P(c2ccccc2)(c2ccccc2)c2ccccc2)n1

>  <growth inhibition (%)>
1

$$$$
>  <COMPOUND>
CC1=CC(=C(c2ccc(N)cc2)c2ccc(N)cc2)C=CC1=N

>  <growth inhibition (%)>
20

$$$$
>  <COMPOUND>
S=C1SCN(C2CCCCC2)CN1C1CCCCC1

>  <growth inhibition (%)>
-3

$$$$
>  <COMPOUND>
COc1ccc(C(=O)Oc2ccccc2Br)cc1

>  <growth inhibition (%)>
26

$$$$
>  <COMPOUND>
CCCCCCC(O)CNCc1ccnc2ccc(OC)cc12 (stereo unspecified)

>  <growth inhibition (%)>
4

$$$$

* * *

- MEASUREMENT_DESCRIPTION: NCI Yeast Anticancer Drug Screen. Data for the rad50 strain (AID 155);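 note: 0% = growth of vehicle-only cultures of the same strain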
- APPLIED_CONDITIONS: S. cerevisiae rad50 strain growth inhibition; at 5.0 µM (retest, dose inferred, filed as 0.5); hits give high values
This is part of a sample that, as a whole, favours compounds with a hit. Of some 79,000 tested, about 15% had one in any assay.

>  <COMPOUND>
Cc1ccccc1N=Cc1cc(Cl)ccc1O

>  <UNITS>
%

>  <growth inhibition>
-74

$$$$
>  <COMPOUND>
CCCCC(CC)C(=O)[O][Sn]([CH2]CCC)([CH2]CCC)[O]C(=O)C(CC)CCCC (stereo unspecified)

>  <UNITS>
%

>  <growth inhibition>
50

$$$$
>  <COMPOUND>
O=C1c2ccccc2C(=O)N1CCCC(=O)n1cc(F)c(=O)[nH]c1=O

>  <UNITS>
%

>  <growth inhibition>
27

$$$$
>  <COMPOUND>
COc1ccc(N=CN(C)C)c(C)c1

>  <UNITS>
%

>  <growth inhibition>
50

$$$$
>  <COMPOUND>
COC(=O)/C=C(/CC(=O)OC)C(=O)OC

>  <UNITS>
%

>  <growth inhibition>
59

$$$$
>  <COMPOUND>
CC1=C(SCc2ccccc2)C(=O)c2ccccc2C1=O

>  <UNITS>
%

>  <growth inhibition>
99

$$$$

* * *

- MEASUREMENT_DESCRIPTION: NCI Yeast Anticancer Drug Screen. Data for the rad50EPP+ strain (AID 151);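 note: 0% = growth of vehicle-treated control cultures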
- APPLIED_CONDITIONS: S. cerevisiae rad50 mutant strain, at 33.0 µM, hits give high values
About 79,000 compounds went through this panel and 15% of them were active in at least one assay; those are over-represented in the sample as a whole.
Assign class by growth inhibition: not lower than 10% means Fulfilled; lower than 10% means Not fulfilled.

>  <MOLECULE>
COc1cc([C@@H]2c3cc4c(cc3[C@@H](Nc3ccc(NC(=O)c5cc([N+](=O)[O-])cn5C)cc3)[C@H]3COC(=O)[C@H]23)OCO4)cc(OC)c1O

>  <ANSWER_LABEL>
Fulfilled

$$$$
>  <MOLECULE>
CCCC/C([O-])=C1/C(=O)N(c2ccccc2)N=C1C.CCCC/C([O-])=C1/C(=O)N(c2ccccc2)N=C1C.[Cu+2]

>  <ANSWER_LABEL>
Not fulfilled

$$$$
>  <MOLECULE>
N#CC1=C(N)N(/N=C/c2ccccc2)C(c2ccccc2)C1(C#N)C#N (stereo not given)

>  <ANSWER_LABEL>
Fulfilled

$$$$
>  <MOLECULE>
O=C1N=C2SC=C(NC(=S)Nc3ccccc3)N2NC12c1ccccc1-c1ccccc12

>  <ANSWER_LABEL>
Fulfilled

$$$$
>  <MOLECULE>
CC1CC[C@]2(C(=O)O)CCC3(C)C(=CC(=O)C4[C@@]5(C)CCC(=O)C(C)(C)C5CC[C@]43C)[C@@H]2[C@H]1C (stereo not given in full)

>  <ANSWER_LABEL>
Fulfilled

$$$$
>  <MOLECULE>
C=C1CCC(O)C/C1=C/C=C1\CCCC2(C)C1CCC2C(C)CCCC(C)C (stereo not given)

>  <ANSWER_LABEL>
Not fulfilled

$$$$
>  <MOLECULE>
CCCCCCCCCCCC1N=C(N)NC(CCCO)=C1C(=O)OC (stereo not given)

>  <ANSWER_LABEL>
Fulfilled

$$$$
>  <MOLECULE>
O=C(CC(C(=O)O)N1CCOCC1)c1ccccc1 (stereo not given)

>  <ANSWER_LABEL>
Fulfilled

$$$$
>  <MOLECULE>
CN(C)N=Nc1ccccc1C(=O)NC#N

>  <ANSWER_LABEL>
Fulfilled

$$$$
>  <MOLECULE>
O=c1c2ccccc2nc(-c2ccccc2)n1O

>  <ANSWER_LABEL>
Fulfilled

$$$$

* * *

- MEASUREMENT_DESCRIPTION: NCI Yeast Anticancer Drug Screen. Data for the mlh1 rad18 strain (AID 175)
- APPLIED_CONDITIONS: S. cerevisiae mlh1 rad18 strain growth inhibition; at 5.0 µM (retest, dose inferred, filed as 0.5); hits give high values
About 79,000 compounds went through this panel and 15% of them were active in at least one assay; those are over-represented in the sample as a whole.

>  <COMPOUND>
COC(C(O)CO)C(O)C(O)C(=O)NNc1ccccc1 (stereo unspecified)

>  <growth inhibition [%]>
28

$$$$
>  <COMPOUND>
N#CC(=Nc1ccccc1F)Nc1ccccc1F

>  <growth inhibition [%]>
-7

$$$$
>  <COMPOUND>
O=C1C=C(Cl)C(=O)N1c1cccc(Cl)c1

>  <growth inhibition [%]>
0

$$$$
>  <COMPOUND>
Oc1ccc2ccccc2c1CCc1c(O)ccc2ccccc12

>  <growth inhibition [%]>
55

$$$$
>  <COMPOUND>
CC(=O)Nc1ccc(/C=C/[N+](=O)[O-])cc1

>  <growth inhibition [%]>
-96

$$$$
>  <COMPOUND>
C/C(=N\Nc1ccc([N+](=O)[O-])cc1[N+](=O)[O-])c1sc(-n2nc(-c3ccccc3)cc2-c2ccccc2)nc1C

>  <growth inhibition [%]>
24

$$$$
